System: IGROV1 ovarian
ASSAY_COMMENT: NCI-60 one-dose screen, 48 h (100 = growth as untreated, 0 = no growth, -100 = all killed)
CONDITION_PARAMETERS: 10 µM unless noted
Compounds without any hit were thinned out: in the full panel of roughly 83,000, 20% have a hit. Active and inactive are the calls of the source. Rule for the calls: active = growth percent below 10; inactive = the rest.
Record form. Attribute: growth. Fill in for each entry.

Problem: Which growth is reported for this compound? CCc1cccc(-c2ccccc2)c1
Solution: 107% (inactive)

Problem: Quick one: growth for Cc1cccc(Cc2cnc(NC(=O)CCc3ccc(C)o3)s2)c1 ?
Solution: 32.2% (inactive)

Problem: Given the entry COc1cccc(C2CC(c3cc(OC)c(OC)c(OC)c3)=NN2)c1 (stereo not given) , report its measured growth.
Solution: 99.4% (inactive)

Problem: Give its growth value. Item: O=C(CSc1nnc(-c2ccccc2)o1)Nc1ccc(C(=O)/C=C/c2ccccc2)cc1
Solution: 38% (inactive)

Problem: Data request, read-out growth, for CC(NCCC(c1ccccc1)c1ccccc1)c1ccccc1 (stereo not given)
Solution: 55.6% (inactive)

Problem: Value lookup for growth; key = CCOC(=O)C(C)(CSSCC(C)(NC(=O)c1ccc2ccccc2c1)C(=O)OCC)NC(=O)c1ccc2ccccc2c1 (stereo not given)
Solution: 93.3% (inactive)

Problem: Could you share which growth value was measured for Nc1ccc(S(=O)(=O)Nc2ccnn2-c2ccccc2)cc1 ?
Solution: 107% (inactive)

Problem: Return reported growth; argument: Cc1cc2c(cc1C)N(C(=O)CCl)CCN2C(=O)CCl
Solution: -61.8% (active)

Problem: Any idea what its growth is? The compound is C=C1C(=O)O[C@H]2[C@H]1CC/C(COC(=O)CCCC(=O)OC/C1=C/CC[C@@]3(C)O[C@H]3[C@H]3OC(=O)C(=C)[C@@H]3CC1)=C\CC[C@@]1(C)O[C@@H]21
Solution: 13.4% (inactive)

Problem: Which growth is reported for this compound? CN1CCN(Cn2nc(-c3cc(Cl)cc(Cl)c3Cl)n(/N=C/c3ccc(Cl)cc3)c2=S)CC1
Solution: 108% (inactive)

Problem: Can you look up the measured growth of Cc1cc(-c2ccccc2)nc2ccccc12 for me?
Solution: 92.5% (inactive)

Problem: Please report the recorded growth for c1ccc(-c2nc3sc(C(c4ccccc4)c4ccccc4)nn3c2-c2ccccc2)cc1 .
Solution: 86.4% (inactive)

Problem: Fill blank: measured growth of the compound Cc1ccc(Cn2cc(COc3ccc4c5ccnc(C)c5n(CCCc5ccccc5)c4c3)nn2)cc1 is ____.
Solution: 87.5% (inactive)

Problem: Endpoint output: growth of NC(=NCCCOc1ccc(F)cc1)Nc1ccc(Cl)c(Cl)c1 . Value?
Solution: 45.9% (inactive)

Problem: Fill in the blank: the reported growth of CCOC(=O)CSc1nnc(-c2cc3c([nH]c4ccccc43)c(-c3cccc(O)c3)n2)n1-c1ccc(C)cc1 is ____.
Solution: 28.3% (inactive)

Problem: Look up growth: CCn1c(SC)nnc1-c1cc2c([nH]c3ccccc32)c(-c2cccc(O)c2)n1
Solution: 35% (inactive)

Problem: Quick check: growth of O=C(NCCNc1nccc(-c2c(-c3cccc(O)c3)nc3sccn23)n1)Nc1cccc(C(F)(F)F)c1 ?
Solution: 65.6% (inactive)

Problem: Would you kindly share the measured growth for Cc1cn(-c2cc(C(=O)Nc3cccc(-n4ccc5c(NC(=O)c6ccccc6)nccc54)c3)cc(C(F)(F)F)c2)cn1 ?
Solution: 7.51% (active)

Problem: Looking for the measured growth of CCc1c(C)c2cc3c(c(C)c2oc1=O)OCC(=O)N3 , can you help?
Solution: 51.7% (inactive)

Problem: Name the recorded growth for C[C@]12CC[C@@H]3c4ccc(O)c(N)c4CC[C@H]3[C@@H]1CC[C@@H]2O .
Solution: 136% (inactive)

Problem: Entry c1ccc2nc(Cn3cc[n+](Cc4ccc5ccccc5n4)c3)ccc2c1 has what growth?
Solution: 68.3% (inactive)

Problem: Need growth of CCOC(=O)c1noc2c1CCc1c-2cn(Cc2ccc(OC)cc2)c1-c1cc(OC)c(OC)c(OC)c1 , thanks.
Solution: 33.2% (inactive)

Problem: So what does the record say about growth for Nc1nc(=S)ss1 ?
Solution: 133% (inactive)

Problem: May I ask what growth has been recorded for COc1ccc(Cn2cc(COc3ccc4c5ccnc(C)c5n(CCCc5ccccc5)c4c3)nn2)cc1 ?
Solution: 75.3% (inactive)

Problem: Can you share its growth? I mean this compound: CC(=O)N1N=C(CCC(=O)c2nc3ccc([N+](=O)[O-])cc3[nH]2)OC1c1ccc(O)cc1 (stereo not given)
Solution: 103% (inactive)

Problem: Given O=C1CCC(c2c(O)cc(O)c3c(=O)c(O)c(-c4ccc(O)c(O)c4)oc23)N1 (stereo not given) , state its recorded growth.
Solution: 107% (inactive)

Problem: Looking for the measured growth of COc1ccc2c(c1)OC(N(C(C)=O)C(C)=O)=C(C#N)C2c1ccc(F)cc1 (stereo not given) , can you help?
Solution: 56.1% (inactive)

Problem: Fill in the blank: the reported growth of Cc1ccc2c(c1)Nc1ccc(C)cc1C2(C)C is ____.
Solution: 106% (inactive)

Problem: So what does the record say about growth for Cc1ccc2nc(-c3ccc(-n4on4-c4ccc(/C=C/c5ccc(-n6on6-c6ccc(-c7nc8ccc(C)cc8s7)cc6)cc5S(=O)(=O)O)c(S(=O)(=O)O)c4)cc3)sc2c1 ?
Solution: 101% (inactive)

Problem: Fill in the blank: the reported growth of COc1ccc2c(c1)OC(N)=C(C#N)C2c1ccc(F)c(F)c1 (stereo not given) is ____.
Solution: 53.5% (inactive)

Problem: Query: growth; subject: Cc1c(NC(=O)c2sc3nc4c(cc3c2N)CN(Cc2ccccc2)CC4)cccc1C(F)(F)F
Solution: 51% (inactive)

Problem: I would be grateful if you could share the reported growth for COc1cc2nc(C(=O)N3CCCCC3)cc(Nc3ccccc3)c2cc1OC .
Solution: 98.3% (inactive)

Problem: Can you share its growth? I mean this compound: Oc1ccc(O)c(-[n+]2ccccc2)c1
Solution: 107% (inactive)

Problem: // returns reported growth for input CCc1c(C)c2cc3nc(NCc4ccccc4)oc3c(C)c2oc1=O
Solution: 76.2% (inactive)

Problem: Form field: reported growth of C/C(=N/NC(=O)Cn1c2ccccc2c2ccncc21)c1cccs1
Solution: 90.6% (inactive)

Problem: Value lookup for growth; key = Cc1cc[n+](CCCC[n+]2ccc(C)cc2)cc1
Solution: 99.7% (inactive)

Problem: Can you look up the measured growth of Nc1nc(Cl)cc(NCc2ccc(CNc3cc(Cl)nc(N)n3)cc2)n1 for me?
Solution: -31% (active)

Problem: Name the reported growth value associated with the compound O=C1OC(=O)C2C3CC(c4ccccc43)C12 (stereo not given)
Solution: 109% (inactive)

Problem: Given the compound C=C1C(=O)O[C@H]2[C@H]1CC/C(COC(=O)n1ccnc1C)=C\CC[C@@]1(C)O[C@@H]21 , what is its reported growth?
Solution: 97.7% (inactive)

Problem: Return reported growth; argument: Cc1cc2nc(-c3c(N)ncc(C#N)c3-c3ccc(Cl)cc3)[nH]c2cc1C
Solution: 46% (inactive)

Cited source: PubChem BioAssay (NCI)
